Cited source: ChEMBL document CHEMBL1136884

Each entry below carries its reported pIC50.
System: Trypanosoma brucei rhodesiense
assayProcedure: Antitrypanosomal activity against Trypanosoma brucei rhodesiense after 72 hrs by alamar blue assay
Assay type: functional, organism-based
Kindly note that pIC50 refers to -log10 of the concentration in mol/L and answer with the value alone.

(Q) What reported pIC50 corresponds to NCC(=O)OC1CC2(N3CCCC3)CC(c3ccccc3)C1C(c1ccccc1)C2 (configuration not stated) on Trypanosoma brucei rhodesiense?
(A) 6.64

---

assayProcedure: Selectivity index, ratio of IC50 for rat L6 cells to IC50 for Trypanosoma brucei rhodesiense
Format: toxicity, cell-based
conditionDescription: L6 cells (versus Trypanosoma brucei rhodesiense), read-out: Ratio IC50
Outcome label depends on selectivity ratio relative to 90: at/above gives yes (1), below gives no (0).

Completed entries (count: 3):
CN1CCN(CC(=O)OC2CC3(N(C)C)CC(c4ccccc4)C2C(c2ccccc2)C3)CC1 (racemic): yes (1)
CCN(CC)CC(=O)OC1CC2(N3CCCCC3)CC(c3ccccc3)C1C(c1ccccc1)C2 (stereo unspecified): no (0)
CN(C)C12CC(OC(=O)CN3CCCC3)C(C(c3ccccc3)C1)C(c1ccccc1)C2 (stereo unspecified): yes (1)

(Q) Check if selectivity ratio >= 90 (inclusive). Item: NC1CC2(N3CCCC3)CC(c3ccccc3)C1C(c1ccccc1)C2 (stereo unspecified)
(A) yes (1)

(Q) Could you please find out whether CN1CCN(CC(=O)OC2CC3(N4CCCCC4)CC(c4ccccc4)C2C(c2ccccc2)C3)CC1 (racemic) has selectivity ratio that meets 90 or exceeds it?
(A) no (0)

(Q) Decide: selectivity ratio of NCC(=O)OC1CC2(N3CCCC3)CC(c3ccccc3)C1C(c1ccccc1)C2 (stereo unspecified) >= 90?
(A) yes (1)

(Q) Form field: selectivity ratio at least 90? Entry: CN1CCN(CC(=O)N2CCC3(N4CCCC4)CC(c4ccccc4)C2C(c2ccccc2)C3)CC1 (racemic)
(A) no (0)

(Q) Given CCN(CC)CC(=O)OC1CC2(N(C)C)CC(c3ccccc3)C1C(c1ccccc1)C2 (stereo unspecified) , state whether its selectivity ratio is at least 90.
(A) no (0)

(Q) // inclusive: selectivity ratio at least 90? input: CN1CCN(CC(=O)NC2CC3(N4CCCCC4)CC(c4ccccc4)C2C(c2ccccc2)C3)CC1 (racemic)
(A) no (0)
